Cited source: ChEMBL document CHEMBL5055649

- Protocol: Cytotoxicity against mouse 3T3-L1 cells assessed as cell viability at 25 ug/ml measured up to 72 hrs y MTT assay relative to control
- Type: cell-based
- Condition context: at 25 µg/mL, read-out: Activity
Recorded metric: viability at 72 h, 25 ug/ml (%)

COc1cc(-c2cc(-c3ccc(C(C)(C)C)cc3)n[nH]2)ccc1O = 85
